- System: XIP peptide (Xip251-270)
- ASSAY NAME: small-molecule binders of XIP peptide, primary screen, biochemical, small-molecule microarray, fluorescence 635/667 nm, 0.5 µg/mL protein (AID 1183)
- CONDITION PARAMETERS: small-molecule microarray binding, fluorescence 635 nm; higher = more signal
EXPERIMENTAL ENDPOINT: composite z-score
No unit in the answer, only the number.

Documented composite z-score of CCN1C(=O)[C@H]2[C@H]3[C@H](O)[C@H](O)CC(=NOC(C)CN4CCCc5nc(C)c(C)cc54)[C@@H]3CC[C@H]2C1=O (some centres undefined) : 0.148

Documented composite z-score of CC(C)CON=C1C[C@@H](O)[C@@H](O)[C@@H]2[C@@H]3C(=O)N([C@@H](C)c4ccccc4)C(=O)[C@@H]3CC[C@@H]12 : -0.344

Documented composite z-score of CCOC(=O)[C@H](CC(C)C)NC(=O)CCC1CC(OC(=O)NCCc2ccc(F)cc2)CC2(CCCC(COC(=O)NCc3cccc4ccccc34)O2)O1 (some centres undefined) : 0.24

Documented composite z-score of CCN1C(=O)[C@H]2[C@H]3[C@H](O)[C@H](O)CC(=NO[C@@H]4O[C@H](CO)[C@@H](O)[C@H](O)[C@H]4O)[C@H]3CC[C@H]2C1=O : 0.263
